Values compiled from patent US12570650B2.

# system: SMARCA4 (Homo sapiens, UniProt P51532)
# Construct: Determination of SMARCA2 and SMARCA4 Degradation in VCaP Cells by Western Blot; endogenous in cells; host or cells: VCaP (ATCC CRL-2876)
# Sequence (P51532 whole entry): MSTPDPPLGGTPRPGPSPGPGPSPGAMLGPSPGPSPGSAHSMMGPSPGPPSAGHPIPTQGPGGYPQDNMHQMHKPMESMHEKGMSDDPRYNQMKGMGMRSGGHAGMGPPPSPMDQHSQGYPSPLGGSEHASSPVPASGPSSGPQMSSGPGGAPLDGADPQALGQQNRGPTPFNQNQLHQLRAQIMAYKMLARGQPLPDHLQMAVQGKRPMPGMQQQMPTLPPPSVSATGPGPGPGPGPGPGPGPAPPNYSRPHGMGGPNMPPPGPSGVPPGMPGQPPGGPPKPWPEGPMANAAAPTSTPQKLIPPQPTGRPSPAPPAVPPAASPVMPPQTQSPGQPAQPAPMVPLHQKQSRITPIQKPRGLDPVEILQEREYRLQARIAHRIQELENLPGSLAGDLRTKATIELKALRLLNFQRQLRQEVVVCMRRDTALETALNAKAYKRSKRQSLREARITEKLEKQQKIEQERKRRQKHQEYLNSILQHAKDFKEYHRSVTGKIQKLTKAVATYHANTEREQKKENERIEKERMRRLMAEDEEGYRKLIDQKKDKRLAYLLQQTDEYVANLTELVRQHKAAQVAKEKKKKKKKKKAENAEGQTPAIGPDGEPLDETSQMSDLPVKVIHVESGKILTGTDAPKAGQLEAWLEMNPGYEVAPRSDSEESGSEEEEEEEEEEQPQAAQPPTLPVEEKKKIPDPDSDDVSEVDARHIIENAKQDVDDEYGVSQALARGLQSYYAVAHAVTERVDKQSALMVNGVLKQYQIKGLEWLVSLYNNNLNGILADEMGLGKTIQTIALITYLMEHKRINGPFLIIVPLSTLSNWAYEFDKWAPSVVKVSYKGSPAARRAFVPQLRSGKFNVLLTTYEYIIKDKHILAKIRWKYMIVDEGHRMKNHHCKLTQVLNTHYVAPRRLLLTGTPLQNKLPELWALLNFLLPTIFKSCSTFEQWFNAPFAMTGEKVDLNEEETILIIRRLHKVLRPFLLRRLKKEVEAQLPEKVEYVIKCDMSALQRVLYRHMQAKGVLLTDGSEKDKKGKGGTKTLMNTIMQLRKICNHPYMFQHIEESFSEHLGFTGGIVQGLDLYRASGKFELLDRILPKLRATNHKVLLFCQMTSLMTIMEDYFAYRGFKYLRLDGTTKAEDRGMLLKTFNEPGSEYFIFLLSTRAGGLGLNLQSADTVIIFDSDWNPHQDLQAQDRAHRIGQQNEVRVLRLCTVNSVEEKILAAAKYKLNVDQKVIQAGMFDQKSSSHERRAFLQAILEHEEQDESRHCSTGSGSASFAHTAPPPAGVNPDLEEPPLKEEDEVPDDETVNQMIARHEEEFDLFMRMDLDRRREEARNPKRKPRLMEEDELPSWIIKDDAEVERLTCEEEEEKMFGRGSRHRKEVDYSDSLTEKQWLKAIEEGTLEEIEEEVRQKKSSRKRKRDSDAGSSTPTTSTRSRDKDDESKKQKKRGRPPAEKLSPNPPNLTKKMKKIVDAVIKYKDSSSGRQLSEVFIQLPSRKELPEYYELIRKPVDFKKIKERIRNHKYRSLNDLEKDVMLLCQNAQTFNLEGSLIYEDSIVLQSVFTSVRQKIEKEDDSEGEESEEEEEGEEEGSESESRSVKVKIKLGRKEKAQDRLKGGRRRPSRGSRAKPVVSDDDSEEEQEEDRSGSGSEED
# method: SMARCA4 degradation in VCaP cells by Western blot
# Type: cell-based
# applied conditions: 16 hours
measurement name: Percent degradation (at 100 nM) SMARCA4
Don't forget the unit after the value.

These recorded examples may help you get a feel for the data.
compound	system	result
Cc1ncsc1-c1ccc([C@H](CO)NC(=O)[C@@H]2C[C@@H](O)CN2C(=O)[C@@H](NC(=O)CN2CCN(c3ccc(-c4cnnc(-c5ccccc5O)c4)cc3)CC2)C(C)(C)C)cc1 [Compound 48]	SMARCA4 (Homo sapiens, UniProt P51532)	21%
Cc1ncsc1-c1ccc([C@H](C)NC(=O)[C@@H]2C[C@@H](O)CN2C(=O)[C@@H](NC(=O)CCCCNc2ccc(-c3cnnc(-c4ccccc4O)c3)cc2)C(C)(C)C)cc1 [Compound 36]	SMARCA4 (Homo sapiens, UniProt P51532)	19%
Cc1ncsc1-c1ccc([C@H](C)NC(=O)[C@@H]2C[C@@H](O)CN2C(=O)[C@@H](NC(=O)CN2CCN(c3ccc(-c4cnnc(-c5ccccc5O)c4)cn3)CC2)C(C)(C)C)cc1 [Compound 5]	SMARCA4 (Homo sapiens, UniProt P51532)	0%
Cc1ncsc1-c1ccc([C@H](C)NC(=O)[C@@H]2C[C@@H](O)CN2C(=O)[C@@H](NC(=O)CN2CCC(Oc3ccc(-c4cnnc(-c5ccccc5O)c4)cc3)CC2)C(C)(C)C)cc1 [Compound 19]	SMARCA4 (Homo sapiens, UniProt P51532)	0%
Cc1ncsc1-c1ccc([C@H](C)NC(=O)[C@@H]2C[C@@H](O)CN2C(=O)[C@@H](NC(=O)CN2CC(c3ccc(-c4cnnc(-c5ccccc5O)c4)cc3)C2)C(C)(C)C)cc1 [Compound 21]	SMARCA4 (Homo sapiens, UniProt P51532)	4%

Go through the items and report each one's Percent degradation (at 100 nM) SMARCA4.
1. Cc1ncsc1-c1ccc([C@H](C)NC(=O)[C@@H]2C[C@@H](O)CN2C(=O)[C@@H](NC(=O)CN2CCC(n3cc(-c4cnnc(-c5ccccc5O)c4)cn3)CC2)C(C)(C)C)cc1 [Compound 33]
2. Cc1ncsc1-c1ccc([C@H](C)NC(=O)[C@@H]2C[C@@H](O)CN2C(=O)[C@@H](NC(=O)CN2CCC(c3cccc(-c4cnnc(-c5ccccc5O)c4)c3)CC2)C(C)(C)C)cc1 [Compound 23]
3. Cc1ncsc1-c1ccc([C@H](C)NC(=O)[C@@H]2C[C@@H](O)CN2C(=O)[C@@H](NC(=O)C(C)N2CCN(c3ccc(-c4cnnc(-c5ccccc5O)c4)cc3)CC2)C(C)(C)C)cc1 (single isomer, unassigned) [Compound 30]
4. Cc1ncsc1-c1ccc([C@H](C)NC(=O)[C@@H]2C[C@@H](O)CN2C(=O)[C@@H](NC(=O)CN2CCN(c3ccc(-c4cnnc(-c5ccccc5O)c4)cc3)CC2)C(C)(C)C)cc1 [Compound 2]

0%
0%
0%
0%

Go through the items and report each one's Percent degradation (at 100 nM) SMARCA4.
1. Cc1ncsc1-c1ccc([C@H](C)NC(=O)[C@@H]2C[C@@H](O)CN2C(=O)C(c2cc(-c3ccc(-c4cnnc(-c5ccccc5O)c4)cc3)no2)C(C)C)cc1 (mixture of isomers) [Compound 1]
2. Cc1ncsc1-c1ccc([C@H](C)NC(=O)[C@@H]2C[C@@H](O)CN2C(=O)[C@@H](NC(=O)CN2CCN(c3ccc(-c4cnnc(-c5ccccc5C(F)F)c4)cc3)CC2)C(C)(C)C)cc1 [Compound 37]
3. Cc1ncsc1-c1ccc([C@H](C)NC(=O)[C@@H]2C[C@@H](O)CN2C(=O)[C@@H](NC(=O)CN2CCN(c3ccc(-c4cnnc(-c5cccc6ccoc56)c4)cc3)CC2)C(C)(C)C)cc1 [Compound 40]

1: 30%; 2: 26%; 3: 3%

* * *

# Test system: RERF-LC-A1 cell line
# method: Anti proliferative activity, Cell Titer Glo assay, RERF-LC-A1
# Assay type: cell-based
# applied conditions: 144 h; RERF-LC-A1 cells, terminated day 6 without retreatment, CellTiter-Glo
pEC50: −log10 of the molar value.
measurement name: pEC50

These recorded examples may help you get a feel for the data.
compound	pEC50
Cc1ncsc1-c1ccc([C@H](C)NC(=O)[C@@H]2C[C@@H](O)CN2C(=O)[C@@H](NC(=O)CN2CCN(c3ccc(-c4cnnc(-c5ccccc5O)c4)cn3)CC2)C(C)(C)C)cc1 [Compound 5]	< 7.00
Cc1ncsc1-c1ccc([C@H](C)NC(=O)[C@@H]2C[C@@H](O)CN2C(=O)[C@@H](NC(=O)CN2CC3CCC(C2)N3c2ccc(-c3cnnc(-c4ccccc4O)c3)cc2)C(C)(C)C)cc1 [Compound 24]	> 7.00
Cc1ncsc1-c1ccc([C@H](C)NC(=O)[C@@H]2C[C@@H](O)CN2C(=O)[C@@H](NC(=O)CN2CC=C(c3ccc(-c4cnnc(-c5ccccc5O)c4)cc3)CC2)C(C)(C)C)cc1 [Compound 10]	> 7.00
Cc1ncsc1-c1ccc([C@H](C)NC(=O)[C@@H]2C[C@@H](O)CN2C(=O)C(c2cc(OCCOc3ccc(-c4cnnc(-c5ccccc5O)c4)cc3)no2)C(C)C)cc1 (mixture of isomers) [Compound 42]	< 7.00
Cc1ncsc1-c1ccc(CNC(=O)[C@@H]2C[C@@H](O)CN2C(=O)[C@@H](NC(=O)CN2CCC(c3ccc(-c4cnnc(-c5ccccc5O)c4)cc3)CC2)C(C)(C)C)cc1 [Compound 12]	> 7.00

Go through the items and report each one's pEC50.
1. Cc1ncsc1-c1ccc([C@H](C)NC(=O)[C@@H]2C[C@@H](O)CN2C(=O)[C@@H](NC(=O)CC2CCN(c3ccc(-c4cnnc(-c5ccccc5O)c4)cc3)CC2)C(C)(C)C)cc1 [Compound 6]
2. Cc1ncsc1-c1ccc([C@H](C)NC(=O)[C@@H]2C[C@@H](O)CN2C(=O)[C@@H](NC(=O)CN2CCC(c3ccc(-c4cnnc(-c5ccccc5O)c4)cc3)CC2)C(C)(C)C)cc1 [Compound 11]
3. Cc1ncsc1-c1ccc([C@H](C)NC(=O)[C@@H]2C[C@@H](O)CN2C(=O)[C@@H](NC(=O)C(C)N2CCC(c3ccc(-c4cnnc(-c5ccccc5O)c4)cc3)CC2)C(C)(C)C)cc1 (stereo partly drawn) [Compound 14]
4. Cc1ncsc1-c1ccc([C@H](C)NC(=O)[C@@H]2C[C@@H](O)CN2C(=O)[C@@H](NC(=O)CN2CCN(c3ccc(-c4cnnc(-c5ccccc5O)c4)cc3)CC2)C(C)(C)C)cc1 [Compound 2]

["> 7.00", "> 7.00", "> 7.00", "> 7.00"]

* * *

# system: SMARCA4 (Homo sapiens)
# Construct: Determination of SMARCA2 and SMARCA4 Degradation in VCaP Cells by Western Blot; endogenous in cells; host or cells: VCaP (ATCC CRL-2876)
# method: SMARCA4 degradation in VCaP cells by Western blot
# Assay type: cell-based
# applied conditions: 16 hours
measurement name: Percent degradation (at 100 nM) SMARCA4
Don't forget the unit after the value.

These recorded examples may help you get a feel for the data.
compound	result
Cc1ncsc1-c1ccc([C@H](C)NC(=O)[C@@H]2C[C@@H](O)CN2C(=O)[C@@H](NC(=O)CN2CCC(c3ccc(-c4cnnc(-c5cc(F)ccc5O)c4)cc3)CC2)C(C)(C)C)cc1	0%
Cc1ncsc1-c1ccc([C@H](C)NC(=O)[C@@H]2C[C@@H](O)CN2C(=O)[C@@H](NC(=O)CCCCOc2ccc(-c3cnnc(-c4ccccc4O)c3)cc2)C(C)(C)C)cc1	58%
Cc1ncsc1-c1ccc([C@H](C)NC(=O)[C@@H]2C[C@@H](O)CN2C(=O)[C@@H](NC(=O)C(C)N2CCN(c3ccc(-c4cnnc(-c5ccccc5O)c4)cc3)CC2)C(C)(C)C)cc1 (stereo partly shown) [Compound 28]	0%
Cc1ncsc1-c1ccc(CNC(=O)[C@@H]2C[C@@H](O)CN2C(=O)[C@@H](NC(=O)CN2CCC(c3ccc(-c4cnnc(-c5ccccc5O)c4)cc3)CC2)C(C)(C)C)cc1	0%
Cc1ncsc1-c1ccc([C@H](C)NC(=O)[C@@H]2C[C@@H](O)CN2C(=O)[C@@H](NC(=O)CN2CCC(c3ccc(-c4cnnc(-c5ccccc5O)c4)cc3F)CC2)C(C)(C)C)cc1	0%

Go through the items and report each one's Percent degradation (at 100 nM) SMARCA4.
1. Cc1ncsc1-c1ccc([C@H](C)NC(=O)[C@@H]2C[C@@H](O)CN2C(=O)[C@@H](NC(=O)CN2CC3CCC(C2)N3c2ccc(-c3cnnc(-c4ccccc4O)c3)cc2)C(C)(C)C)cc1
2. Cc1ncsc1-c1ccc([C@H](C)NC(=O)[C@@H]2C[C@@H](O)CN2C(=O)C(c2cc(OCCN(C)c3ccc(-c4cnnc(-c5ccccc5O)c4)cc3)no2)C(C)C)cc1 (mixture of isomers)
3. Cc1ncsc1-c1ccc([C@H](C)NC(=O)[C@@H]2C[C@@H](O)CN2C(=O)[C@@H](NC(=O)C2CCC(c3ccc(-c4cnnc(-c5ccccc5O)c4)cc3)CC2)C(C)(C)C)cc1 (stereo partly shown)
4. Cc1ncsc1-c1ccc(C(CN(C)C)NC(=O)[C@@H]2C[C@@H](O)CN2C(=O)[C@@H](NC(=O)CN2CCN(c3ccc(-c4cnnc(-c5ccccc5O)c4)cc3)CC2)C(C)(C)C)cc1 (stereo partly shown)
5. Cc1ncsc1-c1ccc([C@H](C)NC(=O)[C@@H]2C[C@@H](O)CN2C(=O)[C@@H](NC(=O)CN2CCN(c3ccc(-c4cnnc(-c5cc(F)ccc5O)c4)cc3)CC2)C(C)(C)C)cc1

1: 15%; 2: 6%; 3: 0%; 4: 48%; 5: 0%
